The entries below are paired with their reported Percent Effect.
- Tested on: Wolbachia pipientis
- assay info: Anti-Wolbachia Cell-Based Screen
- Assay type: functional
- Set-up: scale not given: in the data most compounds retested in dose-response had high values
- particulars: 5 µM
Hit rate of the full screen: of about 48,000 compounds, about 13,000 (27%) showed an effect of 50% or more. The list shows a part of the results.
Reply with just the number (in %).

In the examples that follow, each entry is paired with its recorded Percent Effect.
QUERY: Look up Percent Effect: COCC(C)N(Cc1ccccc1OC)C(=O)c1cc(C)[nH]c(=O)c1 (stereo unspecified)
RESULT: -10.95

QUERY: Same again, this time with CCCc1nnc(NC2CCN(Cc3ccc(F)c(F)c3)CC2)o1
RESULT: -13.59

QUERY: Same again, this time with CC(NC(=O)CN1CCN(Cc2ccc(Br)s2)CC1)c1ccccc1 (stereo unspecified)
RESULT: -2.941

QUERY: Same again, this time with O=C(NC1CCOC1)c1cccc(S(=O)(=O)NCCCc2ncc[nH]2)c1 (stereo unspecified)
RESULT: -8.272

QUERY: Same again, this time with O=C(NC1CCOCC1)c1cccc(C2CCCNC2)c1 (stereo unspecified)
RESULT: 85.12

// below: Percent Effect requested for another compound
QUERY: Look up Percent Effect: CCOC(=O)N1CCC(NC(=O)c2cccc(C3CCCNC3)c2)CC1 (stereo unspecified)
RESULT: 94.34

* * *

- System: Wolbachia pipientis
- assay info: Anti-Wolbachia Cell-Based Screen
- Format: functional
- Set-up: scale not given: in the data most compounds retested in dose-response had high values
- particulars: 5 µM
The whole screen tested about 48,000 compounds, of which about 13,000 (27%) showed an effect of 50% or more. The list shows a part of the results.
The entries below are paired with their reported Percent Effect.
Reply with just the number (in %).

QUERY: Look up Percent Effect: CCCOC1CCCN(C(=O)c2csc(S(N)(=O)=O)c2)C1 (configuration not stated)
RESULT: 6.923

QUERY: Same again, this time with O=C(NCCn1ccnc1)N1CCCN(Cc2cccs2)CC1
RESULT: 115.6

QUERY: Same again, this time with O=S(=O)(c1ccc(-c2nc3c([nH]2)CCNC3)cc1)N1CCCC1
RESULT: -8.56

QUERY: Same again, this time with c1cncc(N2CCCn3nnc(CN4CCOCC4)c3C2)c1
RESULT: 107.9

QUERY: Same again, this time with CCN(CC)Cc1cc(C(=O)N2CC[C@@]3(O)CCCC[C@H]3C2)c(C)o1
RESULT: -6.043

QUERY: Same again, this time with O=C(O)C(F)(F)F.O=C(O)C(F)(F)F.c1cncc(N2CCCn3nnc(CN4CCCCC4)c3C2)c1
RESULT: 109.4

QUERY: Same again, this time with O=C(O)C(F)(F)F.O=C(O)C(F)(F)F.c1cncc(CN2CCCn3nnc(COCC4CC4)c3C2)c1
RESULT: -24.42

* * *

- Test system: Wolbachia pipientis
- assay info: Anti-Wolbachia Cell-Based Screen
- Type: functional
- Parameters: scale not given: in the data most compounds retested in dose-response had high values
- particulars: 5 µM
Out of some 48,000 compounds screened, about 13,000 (27%) showed an effect of 50% or more. The list shows a part of the results.
recorded endpoint: Percent Effect (%)
Reply with just the number (in %).

In the examples that follow, each entry is paired with its recorded Percent Effect.
QUERY: Missing value: Percent Effect, Wolbachia pipientis, entry C1CCC(CN2Cc3nnn(CC4CC4)c3C(COCC3CC3)C2)C1.O=C(O)C(F)(F)F (configuration not stated) . Fill in?
RESULT: 107.6

QUERY: Same again, this time with O=S(=O)(c1ccccc1)N1CCCC1c1cc[nH]n1 (configuration not stated)
RESULT: 100.7

QUERY: Same again, this time with CCOCC1CN(CC2CCC2)Cc2nnn(CC3CC3)c21 (configuration not stated)
RESULT: 111.4

QUERY: Same again, this time with Cc1ccc(C2(O)CCN(Cc3nnc(-c4cccnc4)o3)CC2)nc1
RESULT: -8.871

QUERY: Same again, this time with O=S(=O)(c1ccccc1F)N1CCCCC1c1cc[nH]n1 (configuration not stated)
RESULT: 126.5

More entries:
QUERY: Missing value: Percent Effect, Wolbachia pipientis, entry O=C(c1cccc2c1OCCO2)N1CCCC1Cn1cccn1 (configuration not stated) . Fill in?
RESULT: 5.303

QUERY: Same again, this time with O=C(Cc1ccc2c(c1)CCC2)N1CCCC(n2cccn2)C1 (configuration not stated)
RESULT: -2.086

QUERY: Same again, this time with O=C(Cc1ccc2c(c1)CCC2)N1CCCC1Cn1cccn1 (configuration not stated)
RESULT: 137.3

QUERY: Same again, this time with CNS(=O)(=O)c1ccc(CN2CCCC2c2ccc(F)cc2)cc1 (configuration not stated)
RESULT: -2.722

# credit: ChEMBL document CHEMBL3988442
